# Test system: SK-MEL-2
# method: Growth inhibition of human SK-MEL-2 cells incubated for 48 hrs by sulforhodamine B assay
# Assay type: functional, cell-based
# applied-conditions: SK-MEL-2, 48 h, read-out: LC50 (the source's name)
Consider the following molecules; for each one, report its CC50.

Prompt: Any idea what CC50 was measured for `O=C(Nc1cccc(-n2cc(-c3ccncc3)c(-c3cc(O)cc(Cl)c3)n2)c1)c1cc(C(F)(F)F)cc(C(F)(F)F)c1` ?
Response: > 100 µM

Prompt: Any idea what CC50 was measured for `O=C(Nc1cccc(-n2cc(-c3ccncc3)c(-c3cc(O)cc(Cl)c3)n2)c1)Nc1ccc(Cl)c(C(F)(F)F)c1` ?
Response: 94.2 µM

Prompt: Any idea what CC50 was measured for `O=C(Nc1cccc(-n2cc(-c3ccncc3)c(-c3cc(O)cc(Cl)c3)n2)c1)Nc1ccc(Cl)c(Cl)c1` ?
Response: 9.1 µM

Prompt: Any idea what CC50 was measured for `COc1cc(Cl)cc(-c2nn(-c3cccc(NC(=O)Nc4ccc(Cl)c(C(F)(F)F)c4)c3)cc2-c2ccncc2)c1` ?
Response: 9.59 µM

----------
# Test system: U-251
# method: Growth inhibition of human U251 cells assessed as cell growth at 1 uM incubated for 48 hrs by sulforhodamine B assay relative to control
# Assay type: functional
# applied-conditions: U-251, 48 h, read-out: Activity
endpoint-name: growth at 1 µM

Prompt: Any idea what growth at 1 µM was measured for `O=C(Nc1cccc(-n2cc(-c3ccncc3)c(-c3cc(O)cc(Cl)c3)n2)c1)c1ccc(N2CCOCC2)c(C(F)(F)F)c1` ?
Response: 51%

Prompt: Any idea what growth at 1 µM was measured for `COc1cc(Cl)cc(-c2nn(-c3cccc(NC(=O)c4cccc(C(F)(F)F)c4)c3)cc2-c2ccncc2)c1` ?
Response: 65%

Prompt: Any idea what growth at 1 µM was measured for `COc1cc(Cl)cc(-c2nn(-c3cccc(NC(=O)Nc4cccc(C(F)(F)F)c4)c3)cc2-c2ccncc2)c1` ?
Response: 47%

Prompt: Any idea what growth at 1 µM was measured for `O=C(Nc1cccc(-n2cc(-c3ccncc3)c(-c3cc(O)cc(Cl)c3)n2)c1)Nc1ccc(Cl)c(Cl)c1` ?
Response: 74%

Prompt: Any idea what growth at 1 µM was measured for `COc1cc(Cl)cc(-c2nn(-c3cccc(NC(=O)Nc4ccc(Cl)c(C(F)(F)F)c4)c3)cc2-c2ccncc2)c1` ?
Response: 43%

Prompt: Any idea what growth at 1 µM was measured for `O=C(Nc1cccc(-n2cc(-c3ccncc3)c(-c3cc(O)cc(Cl)c3)n2)c1)Nc1ccc(Cl)c(C(F)(F)F)c1` ?
Response: 56%

----------
# System: 786-0
# method: Growth inhibition of human 786-0 cells assessed as cell growth at 10 uM incubated for 48 hrs by sulforhodamine B assay relative to control
# Format: functional
# applied-conditions: 786-0, 48 h, read-out: Activity
Consider the following compounds; for each one, report its growth at 10 µM.

Prompt: Any idea what growth at 10 µM was measured for `COc1cc(Cl)cc(-c2nn(-c3cccc(NC(=O)Nc4ccc(Cl)c(Cl)c4)c3)cc2-c2ccncc2)c1` ?
Response: 19.6%

Prompt: Any idea what growth at 10 µM was measured for `COc1cc(Cl)cc(-c2nn(-c3cccc(NC(=O)c4cc(C(F)(F)F)cc(C(F)(F)F)c4)c3)cc2-c2ccncc2)c1` ?
Response: 80.2%

Prompt: Any idea what growth at 10 µM was measured for `COc1cc(Cl)cc(-c2nn(-c3cccc(NC(=O)c4cccc(C(F)(F)F)c4)c3)cc2-c2ccncc2)c1` ?
Response: 66.6%

Prompt: Any idea what growth at 10 µM was measured for `O=C(Nc1cccc(-n2cc(-c3ccncc3)c(-c3cc(O)cc(Cl)c3)n2)c1)c1cc(C(F)(F)F)cc(C(F)(F)F)c1` ?
Response: 55.1%

----------
Consider the following compounds; for each one, report its growth at 0.01 µM.
# Test system: MDA-MB-231
# method: Growth inhibition of human MDA-MB-231 cells assessed as cell growth at 0.01 uM incubated for 48 hrs by sulforhodamine B assay relative to control
# Format: functional
# applied-conditions: MDA-MB-231, 48 h, read-out: Activity
// note: answer is a bare numeric in %

Prompt: Any idea what growth at 0.01 µM was measured for `COc1cc(Cl)cc(-c2nn(-c3cccc(NC(=O)Nc4ccc(Cl)c(Cl)c4)c3)cc2-c2ccncc2)c1` ?
Response: 109

Prompt: Any idea what growth at 0.01 µM was measured for `COc1cc(Cl)cc(-c2nn(-c3cccc(NC(=O)Nc4cccc(C(F)(F)F)c4)c3)cc2-c2ccncc2)c1` ?
Response: 102

Prompt: Any idea what growth at 0.01 µM was measured for `O=C(Nc1cccc(-n2cc(-c3ccncc3)c(-c3cc(O)cc(Cl)c3)n2)c1)c1cc(C(F)(F)F)cc(C(F)(F)F)c1` ?
Response: 98

Prompt: Any idea what growth at 0.01 µM was measured for `COc1cc(Cl)cc(-c2nn(-c3cccc(NC(=O)Nc4ccc(Cl)c(C(F)(F)F)c4)c3)cc2-c2ccncc2)c1` ?
Response: 93

Prompt: Any idea what growth at 0.01 µM was measured for `O=C(Nc1cccc(-n2cc(-c3ccncc3)c(-c3cc(O)cc(Cl)c3)n2)c1)Nc1ccc(Cl)c(Cl)c1` ?
Response: 94

----------
# System: SF-268
# method: Growth inhibition of human SF268 cells assessed as cell growth at 0.01 uM incubated for 48 hrs by sulforhodamine B assay relative to control
# Format: functional
# applied-conditions: SF-268, 48 h, read-out: Activity
endpoint-name: growth at 0.01 µM (%)
// note: answer is a bare numeric in %

Prompt: Find the measured growth at 0.01 µM: item `COc1cc(Cl)cc(-c2nn(-c3cccc(NC(=O)c4cccc(C(F)(F)F)c4)c3)cc2-c2ccncc2)c1` , target or system SF-268.
Response: 101

Prompt: Find the measured growth at 0.01 µM: item `O=C(Nc1cccc(-n2cc(-c3ccncc3)c(-c3cc(O)cc(Cl)c3)n2)c1)Nc1ccc(Cl)c(C(F)(F)F)c1` , target or system SF-268.
Response: 95

Prompt: Find the measured growth at 0.01 µM: item `COc1cc(Cl)cc(-c2nn(-c3cccc(NC(=O)Nc4ccc(Cl)c(Cl)c4)c3)cc2-c2ccncc2)c1` , target or system SF-268.
Response: 95

Prompt: Find the measured growth at 0.01 µM: item `COc1cc(Cl)cc(-c2nn(-c3cccc(NC(=O)c4ccc(N5CCOCC5)c(C(F)(F)F)c4)c3)cc2-c2ccncc2)c1` , target or system SF-268.
Response: 95

----------
# Test system: UACC-257
# method: Growth inhibition of human UACC257 cells incubated for 48 hrs by sulforhodamine B assay
# Format: functional, cell-based
# applied-conditions: UACC-257, 48 h, read-out: TGI
Consider the following compounds; for each one, report its TGI.
// note: answer is a bare numeric in µM

Prompt: Any idea what TGI was measured for `COc1cc(Cl)cc(-c2nn(-c3cccc(NC(=O)c4ccc(N5CCOCC5)c(C(F)(F)F)c4)c3)cc2-c2ccncc2)c1` ?
Response: 69.1

Prompt: Any idea what TGI was measured for CNC(=O)c1cc(Oc2ccc(NC(=O)Nc3ccc(Cl)c(C(F)(F)F)c3)cc2)ccn1 [SORAFENIB] ?
Response: 5.01

Prompt: Any idea what TGI was measured for `COc1cc(Cl)cc(-c2nn(-c3cccc(NC(=O)Nc4ccc(Cl)c(Cl)c4)c3)cc2-c2ccncc2)c1` ?
Response: 61.9

Prompt: Any idea what TGI was measured for `COc1cc(Cl)cc(-c2nn(-c3cccc(NC(=O)Nc4ccc(Cl)c(C(F)(F)F)c4)c3)cc2-c2ccncc2)c1` ?
Response: 49.3

Prompt: Any idea what TGI was measured for `COc1cc(Cl)cc(-c2nn(-c3cccc(NC(=O)Nc4cccc(C(F)(F)F)c4)c3)cc2-c2ccncc2)c1` ?
Response: 45.5

Prompt: Any idea what TGI was measured for `O=C(Nc1cccc(-n2cc(-c3ccncc3)c(-c3cc(O)cc(Cl)c3)n2)c1)Nc1ccc(Cl)c(Cl)c1` ?
Response: 43

----------
# Test system: HCT-116
# method: Growth inhibition of human HCT116 cells incubated for 48 hrs by sulforhodamine B assay
# Assay type: functional, cell-based
# applied-conditions: HCT-116, 48 h, read-out: TGI
endpoint-name: TGI

Prompt: Any idea what TGI was measured for `COc1cc(Cl)cc(-c2nn(-c3cccc(NC(=O)c4ccc(N5CCOCC5)c(C(F)(F)F)c4)c3)cc2-c2ccncc2)c1` ?
Response: > 100 µM

Prompt: Any idea what TGI was measured for `O=C(Nc1cccc(-n2cc(-c3ccncc3)c(-c3cc(O)cc(Cl)c3)n2)c1)c1cc(C(F)(F)F)cc(C(F)(F)F)c1` ?
Response: > 100 µM

Prompt: Any idea what TGI was measured for `COc1cc(Cl)cc(-c2nn(-c3cccc(NC(=O)c4cccc(C(F)(F)F)c4)c3)cc2-c2ccncc2)c1` ?
Response: > 100 µM
